Tested on: Nocardia spp.
Test: E-test on Mueller Hinton agar, 81 clinical isolates
Assay type: cell-based
Conditions: Nocardia
Measured MIC90 accompanies every entry in the list below.
readout.label: MIC90 (µg/mL)

{"molecular.string": "CC[C@H]1OC(=O)[C@H](C)[C@@H](O[C@H]2C[C@@](C)(OC)[C@@H](O)[C@H](C)O2)[C@H](C)[C@@H](O[C@@H]2O[C@H](C)C[C@H](N(C)C)[C@H]2O)[C@](C)(OC)C[C@@H](C)C(=O)[C@H](C)[C@@H](O)[C@]1(C)O", "value.qualifier": "=", "reading": 96}
{"molecular.string": "CN(C)c1ccc(O)c2c1C[C@H]1C[C@H]3[C@H](N(C)C)C(O)=C(C(N)=O)C(=O)[C@@]3(O)C(O)=C1C2=O", "value.qualifier": "=", "reading": 3}
{"molecular.string": "CC(=O)NC[C@H]1CN(c2ccc(N3CCOCC3)c(F)c2)C(=O)O1", "value.qualifier": "=", "reading": 2}
{"molecular.string": "CO/N=C(\\C(=O)N[C@@H]1C(=O)N2C(C(=O)O)=C(CSc3nc(=O)c(=O)[nH]n3C)CS[C@H]12)c1csc(N)n1", "value.qualifier": ">", "reading": 256}
{"molecular.string": "C[C@@H](O)[C@H]1C(=O)N2C(C(=O)O)=C(SCCN=CN)C[C@H]12", "value.qualifier": "=", "reading": 2}
{"molecular.string": "CC1(C)S[C@@H]2[C@H](NC(=O)[C@H](N)c3ccc(O)cc3)C(=O)N2[C@H]1C(=O)O", "value.qualifier": "=", "reading": 32}
{"molecular.string": "NCC[C@H](O)C(=O)N[C@@H]1C[C@H](N)[C@@H](O[C@H]2O[C@H](CN)[C@@H](O)[C@H](O)[C@H]2O)[C@H](O)[C@H]1O[C@H]1O[C@H](CO)[C@@H](O)[C@H](N)[C@H]1O", "value.qualifier": "=", "reading": 1}
{"molecular.string": "NC[C@H]1O[C@H](O[C@H]2[C@H](O)[C@@H](O[C@H]3O[C@H](CO)[C@@H](O)[C@H](N)[C@H]3O)[C@H](N)C[C@@H]2N)[C@H](N)C[C@@H]1O", "value.qualifier": "=", "reading": 12}

Data origin: paper PMC7129073
